meta.source: PubChem BioAssay (NCI)

Test system: SF-539 CNS
method: NCI tumour cell line growth inhibition, 48 h
reported.endpoint: GI50

                structure_as_smiles  test_target    obs_value
0  CC(=O)N1CCN(C2=Nc3ccccc3CO2)C1=S   SF-539 CNS  > 100000 nM

Name the recorded GI50 of the item Cc1ccc(C(=O)N(CCCN)[C@@H](c2nc3cc(Cl)ccc3c(=O)n2Cc2ccccc2)C(C)C)cc1 in your answer. < 10 nM

Give GI50 for the following compound: Cc1c2cnccc2c(C)c2c1c1cc(C3OCCCO3)ccc1n2C 272 nM

Name the recorded GI50 of the compound listed here: Cc1cc(C)nc(NC(N)=NCCc2ccccc2)n1 2560 nM

Entry COc1cc2c(cc1OCCCN1CCN(CCCOc3cc4c(cc3OC)C(=O)N3CCC[C@H]3C=N4)CC1)C=CC(C)(C)O2 needs its GI50 filled in; supply it. 1260 nM
